Tested on: MCF7 breast
Experiment: NCI-60 one-dose screen, 48 h
Conditions: 10 µM unless noted
About 83,000 compounds went through this panel and 20% of them were active in at least one assay; those are over-represented in the sample as a whole. Active and inactive are the calls of the source. Rule for the calls: active = growth percent below 10; inactive = the rest.
Returns: one label drawn from active, inactive

Worked set:
IN: Test call, this compound: `Cc1ccc2c(c1)n([O-])c1cc(Cl)ccc1[n+]2=O`
OUT: inactive

IN: Test call, this compound: `O=[N+]([O-])c1cccc(-c2nc3sccn3c2-c2ccnc(NCCCNS(=O)(=O)c3cccc(F)c3)n2)c1`
OUT: active

Others:
IN: Test call, this compound: `CCCCCC(=O)Oc1ccc(/C(=C(\C)c2ccccc2)c2ccc(OCCN(CC)CC)cc2)cc1`
OUT: inactive

IN: Test call, this compound: `CCOc1ccc(Nc2nc(-c3c(C)nc4ncccn34)cs2)cc1`
OUT: inactive

IN: Test call, this compound: `CC/C(Cc1ccccc1)=C(\c1ccc(OCCN2CCCC2)cc1)c1ccc(OC(C)=O)cc1`
OUT: inactive

IN: Test call, this compound: C=C1CCC2C3(C)COC(C)(C)OC3CCC2(C)C1C/C=C1/C(=O)OCC1OC(C)=O (centres undefined)
OUT: inactive

IN: Test call, this compound: O=C1C=CC(Nc2ccccc2[N+](=O)[O-])C1Nc1ccccc1[N+](=O)[O-] (centres undefined)
OUT: active

IN: Test call, this compound: `Cc1ccc2c(NCCCN(C)C)c3c(C)nn(C)c3nc2c1`
OUT: active

IN: Test call, this compound: `CC(=O)O[C@H]1CC[C@]2(C)[C@H]3CC[C@@H]4[C@H]5[C@H](C(C)C)CC[C@]5(C(=O)OCC(CO)(CO)N=C(N)N)CC[C@@]4(C)[C@]3(C)CC[C@H]2C1(C)C`
OUT: active

IN: Test call, this compound: `CCCCCCCCCC(=O)Oc1ccc(/C(=C(/C)Cc2cccc(OC)c2)c2ccc(OCCN(C)C)cc2)cc1`
OUT: inactive

IN: Test call, this compound: O=C1CC(c2nc3ccccc3[nH]2)CN1C1CCCCC1 (centres undefined)
OUT: inactive

IN: Test call, this compound: `O=[N+]([O-])c1cccc(-c2nc3sccn3c2-c2ccnc(NCCNS(=O)(=O)c3ccc(C(F)(F)F)cc3)n2)c1`
OUT: inactive

IN: Test call, this compound: `CCCCCCCCCc1cc(CN2CCCCC2)c(O)c(CN2CCCCC2)c1`
OUT: inactive

IN: Test call, this compound: `Oc1ccccc1N=Cc1c(O)ccc2ccccc12`
OUT: inactive

IN: Test call, this compound: CCN(CC)CCCC(C)NCCCNc1cccc2cccnc12 (centres undefined)
OUT: inactive

IN: Test call, this compound: `COc1cc(OC)c(/C=C/c2cc[n+](C)c3ccccc23)c(OC)c1`
OUT: active

IN: Test call, this compound: `CC(=O)Oc1ccc(Nc2c3ccccc3nc3ccccc23)cc1`
OUT: active

IN: Test call, this compound: `C(=N\Nc1nnn(Cc2ccccc2)n1)/c1ccccc1`
OUT: inactive

IN: Test call, this compound: `COc1cc(-c2c3c(nc4c2c(C)nn4-c2ccccc2)-c2ccccc2C(=O)C3=O)cc(OC)c1OC`
OUT: inactive

IN: Test call, this compound: `COc1cccc(-c2nc3sccn3c2-c2ccnc(NCCCNS(=O)(=O)c3ccc(Cl)cc3)c2)c1`
OUT: inactive

IN: Test call, this compound: `NC1=CSC2=N/C(=C\c3ccc(Cl)cc3)C(=O)N12`
OUT: inactive
